This collection of values is drawn from ChEMBL document CHEMBL1821621.

System: DLD-1
Assay: Anticancer activity against human DLD1 cells after 72 hrs by SRB assay
Type: functional, cell-based
Details: DLD-1, 72 h
Property Name: pIC50
Lab note — pIC50 values are minus log10 of concentrations in M.

CC1=C[C@@H]2[C@H](C1=O)[C@H](O)C(C)=C[C@H]1[C@@H]3C(C)(C)[C@]3(OC(=O)C(C)C)[C@H](OC(=O)c3ccccc3)[C@@H](C)[C@]21O    4.56
CC(=O)O[C@H]1C(=O)[C@@]2(C)[C@H]([C@H](OC(=O)c3ccccc3)[C@]3(O)C[C@H](OC(=O)[C@H](O)[C@@H](NC(=O)c4ccccc4)c4ccccc4)C(C)=C1C3(C)C)[C@]1(OC(C)=O)CO[C@@H]1C[C@@H]2O    7.41
C=C1[C@@H](OC(=O)C(C)C)[C@@H](OC(C)=O)[C@@H](OC(=O)c2cccnc2)C(C)(C)/C=C/[C@@H](C)C(=O)[C@@]2(O)C[C@H](C)[C@H](OC(=O)CC)[C@@H]2[C@H]1OC(C)=O    4.23

Query: pIC50; subject: C=C1[C@@H](OC(=O)C(C)C)[C@@H](OC(C)=O)[C@@H](OC(=O)c2cccnc2)C(C)(C)/C=C/[C@@H](C)C(=O)[C@@]2(O)C[C@H](C)[C@H](OC(=O)C(C)C)[C@@H]2[C@H]1OC(C)=O
4.66

Query: pIC50; subject: C=C1[C@@H](OC(C)=O)[C@@H](OC(=O)c2ccccc2)[C@@H](OC(C)=O)C(C)(C)/C=C/[C@@H](C)C(=O)[C@@]2(O)C[C@H](C)[C@H](OC(=O)C(C)C)[C@@H]2[C@H]1OC(C)=O
4.37

Query: pIC50; subject: C=C1[C@@H](OC(=O)C(C)C)[C@@H](OC(=O)c2ccccc2)[C@@H](OC(C)=O)C(C)(C)/C=C/[C@@H](C)C(=O)[C@@]2(O)C[C@H](C)[C@H](OC(=O)CC)[C@@H]2[C@H]1OC(C)=O
4.42

Query: pIC50; subject: CC(=O)OC/C1=C/[C@H]2[C@@H](OC(C)=O)[C@](C)(OC(C)=O)C[C@]2(OC(C)=O)C(=O)[C@H](C)/C=C/C(C)(C)[C@H](OC(=O)c2cccnc2)[C@H](OC(C)=O)[C@@H]1OC(=O)C(C)C
4.12

====

System: NCI-H460
Test: Anticancer activity against human NCI-H460 cells after 72 hrs by SRB assay
Type: functional, cell-based
Settings: NCI-H460, 72 h
Below, each entry is listed with its recorded IC30.
Please state the figure in nM; there is no need to write the unit.

CC(=O)O[C@H]1C(=O)[C@@]2(C)[C@H]([C@H](OC(=O)c3ccccc3)[C@]3(O)C[C@H](OC(=O)[C@H](O)[C@@H](NC(=O)c4ccccc4)c4ccccc4)C(C)=C1C3(C)C)[C@]1(OC(C)=O)CO[C@@H]1C[C@@H]2O    3.6

Query: IC30; subject: CC(=O)OC/C1=C/[C@H]2[C@@H](OC(C)=O)[C@](C)(OC(C)=O)C[C@]2(OC(C)=O)C(=O)[C@H](C)/C=C/C(C)(C)[C@H](OC(=O)c2cccnc2)[C@H](OC(C)=O)[C@@H]1OC(=O)C(C)C
4800

====

System: NCI-H460
Experiment: Anticancer activity against multidrug resistant human NCI-H460 cells after 72 hrs by SRB assay
Type: functional, cell-based
Details: NCI-H460, 72 h
Property Name: pIC50
Lab note — pIC50 values are minus log10 of concentrations in M.

Record excerpt, results attached:
C=C1[C@@H](OC(C)=O)[C@@H](OC(=O)c2ccccc2)[C@@H](OC(C)=O)C(C)(C)/C=C/[C@@H](C)C(=O)[C@@]2(O)C[C@H](C)[C@H](OC(=O)C(C)C)[C@@H]2[C@H]1OC(C)=O [EUPHODENDROPHANE D]    4.52
C=C1[C@@H](OC(=O)C(C)C)[C@@H](OC(C)=O)[C@@H](OC(=O)c2cccnc2)C(C)(C)/C=C/[C@@H](C)C(=O)[C@@]2(O)C[C@H](C)[C@H](OC(=O)C(C)C)[C@@H]2[C@H]1OC(C)=O [EUPHODENDROPHANE B]    4.76

As a next step, examine the compound that follows.
Query: pIC50; subject: C=C1[C@@H](OC(=O)C(C)C)[C@@H](OC(C)=O)[C@@H](OC(=O)c2cccnc2)C(C)(C)/C=C/[C@@H](C)C(=O)[C@@]2(O)C[C@H](C)[C@H](OC(=O)CC)[C@@H]2[C@H]1OC(C)=O [EUPHODENDROPHANE A]
4.35
